Where do the numbers come from? From patent US9452980B2.

Answer each item with its documented Ki.
# measuredTarget: mouse TAAR1 (Mus musculus (Mouse))
# Sequence (Q923Y8 whole entry): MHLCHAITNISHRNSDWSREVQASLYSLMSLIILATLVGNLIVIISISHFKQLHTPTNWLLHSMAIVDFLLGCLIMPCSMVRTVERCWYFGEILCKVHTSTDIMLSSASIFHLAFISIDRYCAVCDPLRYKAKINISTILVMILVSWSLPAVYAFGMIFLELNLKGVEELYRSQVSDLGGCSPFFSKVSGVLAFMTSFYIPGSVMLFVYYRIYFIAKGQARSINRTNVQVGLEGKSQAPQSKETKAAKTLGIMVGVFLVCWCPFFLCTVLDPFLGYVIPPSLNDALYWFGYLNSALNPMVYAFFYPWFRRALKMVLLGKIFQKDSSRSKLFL
# experimentalDetails: Radioligand binding assay on mouse TAAR1
# particulars: mouse TAAR1, HEK-293 membranes, first value of cell mouse/rat; read-out: Ki (μM) mouse
Where a name gives a salt, the structure may show the parent alone.
Answers are plain numbers, in µM.

Some solved cases for reference:
O=C(Nc1ccc(C2CCNC2)cc1)Nc1cccc(Cl)c1 (racemic) [Example 8, hydrochloride] | 0.0015
O=C(Nc1cccc(C2CNCCO2)c1)c1ccc(Cl)cc1 (racemic) [Example 72, hydrochloride] | 0.507

Provide each entry's Ki from the list below.
1. O=C(Nc1ccc(C2CCCNC2)cc1)c1ccc(OCC(F)(F)F)nc1 (racemic) [Example 178, hydrochloride]
2. O=C(Nc1ccc([C@H]2CCCNC2)cc1)c1ccc(OCC(F)(F)F)nc1 [Example 223, hydrochloride]

Response line:
[0.0032, 0.0016]

Prompt line: Name the reported Ki value associated with the compound O=C(Nc1ccc(C2CCCNC2)cc1)c1cnc(Cl)cn1 (racemic) [Example 160, hydrochloride]
Response line: 0.0851

###

Answer each item with its documented Ki.
# measuredTarget: rat TAAR1 (Rattus norvegicus (Rat), UniProt Q923Y9)
# Sequence (Q923Y9 whole entry): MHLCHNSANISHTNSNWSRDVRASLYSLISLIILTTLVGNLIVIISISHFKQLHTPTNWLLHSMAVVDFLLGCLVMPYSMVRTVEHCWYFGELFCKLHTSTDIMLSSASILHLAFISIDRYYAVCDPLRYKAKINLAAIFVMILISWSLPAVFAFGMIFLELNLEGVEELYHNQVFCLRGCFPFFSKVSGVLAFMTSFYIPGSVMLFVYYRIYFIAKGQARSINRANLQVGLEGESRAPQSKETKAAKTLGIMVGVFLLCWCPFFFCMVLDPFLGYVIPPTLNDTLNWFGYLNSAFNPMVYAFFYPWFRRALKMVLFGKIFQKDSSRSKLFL
# experimentalDetails: Radioligand binding assay on rat TAAR1
# particulars: rat TAAR1, HEK-293 membranes, second value of cell mouse/rat; read-out: Ki (μM) rat
Structures can show the parent of a compound that is named as a salt.
Quick note: unit goes after the number.

O=C(Nc1ccc(CCC2CCNC2)cc1)c1ccc(Cl)cc1 (racemic) [Example 109, hydrochloride] | 0.0176 µM
O=C(Nc1ccc(CCC2CCCN2)cc1)c1ccc(Cl)c(Cl)c1 (racemic) [Example 154, hydrochloride] | 0.0002 µM

Turning now to a further record.
Prompt line: Query for rat TAAR1 (Rattus norvegicus (Rat), UniProt Q923Y9): what Ki does the record show for O=C(Nc1ccc(CCC2CCCCN2)cc1)c1ccc(Cl)cn1 (racemic) [Example 171, hydrochloride] ?
Response line: 0.0101 µM

###

# measuredTarget: UniProt Q923Y9
# experimentalDetails: Radioligand binding assay on rat TAAR1
# particulars: read-out: Ki (μM) rat
Where a name gives a salt, the structure may show the parent alone.
Answer each item with its documented Ki.
Answers are plain numbers, in µM.

C[C@@H]1CO[C@@H](c2ccc(NC(=O)c3cccc(Cl)c3)cc2)CN1 [Example 323, hydrochloride] | 0.0013
O=C(Nc1ccc([C@@H]2CNCCO2)cc1)c1cccc(Cl)c1 [Example 262, hydrochloride] | 0.0013
O=C(Nc1ccc(C2CNCCO2)cc1)c1ccc(C(F)(F)F)nc1 (racemic) [Example 272, hydrochloride] | 0.0169
CCOc1ccc(C(=O)Nc2ccc([C@H]3CNCCO3)cc2)cc1 [Example 276, hydrochloride] | 0.0008
O=C(Nc1ccc([C@H]2CNCCO2)cc1)c1ccc(Cl)cc1 [Example 144, hydrochloride] | 0.0011
O=C(Nc1ccc([C@H]2CCCNC2)cc1)c1cccc(C(F)(F)F)c1 [Example 261, hydrochloride] | 0.0015

Provide each entry's Ki from the list below.
1. O=C(Nc1ccc([C@H]2CNCCO2)cc1)c1ccc(C(F)(F)F)nc1 [Example 284, hydrochloride]
2. O=C(Nc1ccc(C2CNCCO2)cc1)Nc1ccccc1Cl (racemic) [Example 305, hydrochloride]
3. O=C(NCc1ccc([C@@H]2CNCCO2)cc1)c1ccc(C(F)(F)F)nc1 [Example 321, hydrochloride]
4. O=C(Nc1ccc([C@@H]2CNCCO2)cc1)Nc1ccc(C(F)(F)F)cc1 [Example 311, hydrochloride]

Response line:
[0.005, 0.0038, 0.026, 0.0014]

Provide each entry's Ki from the list below.
1. O=C(Nc1ccc([C@@H]2CNCCO2)cc1)c1ccc(C(F)(F)F)nc1 [Example 283, hydrochloride]
2. COc1ccc(C(=O)Nc2ccc([C@H]3CCCNC3)cc2)cc1Cl [Example 202, hydrochloride]
3. O=C(Nc1ccc(C2CNCCO2)cc1)c1cc(Cl)nc(Cl)c1 (racemic) [Example 221, hydrochloride]
4. CCCc1ccc(C(=O)Nc2ccc([C@@H]3CCCNC3)cc2)cn1 [Example 289]
5. O=C(Nc1ccc(C2CNCCO2)cc1)Nc1ccc(C(F)(F)F)cc1 (racemic) [Example 291, hydrochloride]

Response line:
1. 0.0059
2. 0.0015
3. 0.0037
4. 0.0027
5. 0.0017
